assay: Systemic (plasma) exposure after oral and subcutaneous administration to rats; type: in vivo; conditions: rat, plasma, sc; male rats, subcutaneous, single dose 50 mg/kg; read-out: average maximum plasma concentration (Cmax)
Measured Parameter: Cmax (µg/mL)
Unit µg/mL implied. Number only.

// Cmax value for CS(=O)(=O)CCC#N [MSPN, 3-methanesulfonylpropionitrile] : 160

###

assay: Systemic (plasma) exposure after oral and subcutaneous administration to rats; assay type: in vivo; conditions: rat, plasma; male rats, oral, single dose 50 mg/kg; read-out: average maximum plasma concentration (Cmax)
Measured Parameter: Cmax (µg/mL)
Unit µg/mL implied. Number only.

// Cmax value for `CS(=O)(=O)CCC#N` : 160
